All figures here come from PubChem BioAssay AID1549.

# assay.system: Influenza A virus M2 proton channel (A/TW/4845/1999 H1N1)
# method.notes: M2 proton channel binding, NMR based, influenza A virus H1N1 strain (AID 1549)
# condition.label: NMR binding screen, M2 protein
The source made the active and inactive calls. The rule behind the calls is not given here.
For each entry below, report its Kd value.

Lab note: `CC(=O)NC(=S)Nc1ccc(C(C)=O)cc1` gave Kd of > 4 mM (inactive)

Kd reading for `CN(C)C(=O)c1ccc(-c2n[nH]c(=O)c3ccccc23)cc1` : > 4 mM (inactive)

// `[O-][n+]1c2ccccc2[n+]([O-])c2cc(O)ccc21` : Kd value = > 4 mM (inactive)

For O=S1(=O)CCC(NC(=S)Nc2ccccc2)C1 (stereo unspecified) the compound record lists Kd as > 4 mM (inactive)

The recorded Kd for entry `O=c1[nH]cc(NC(=S)N2CCOCC2)c(=O)[nH]1` equals > 4 mM (inactive)

Input `COc1ccccc1NC(=O)c1cc[n+]([O-])cc1` . Output Kd: > 4 mM (inactive)
